- SYSTEM: T1, SHANK1, Q9Y566
- T1 sequence (Q9Y566 658-767, limits assumed, looked up): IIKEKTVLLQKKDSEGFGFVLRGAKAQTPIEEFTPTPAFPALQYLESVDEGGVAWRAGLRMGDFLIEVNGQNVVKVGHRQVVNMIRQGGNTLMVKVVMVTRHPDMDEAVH
- TEST DETAILS: holdup assay
- Set-up: key: below the threshold = too weak to quantify, mostly under pKd 3.1 to 4
- RUN CONDITIONS: plain residues with an end cap or a label only (N-terminal biotin on a linker: ttds)
Kindly supply the reported pKd values for the records listed here.
In your answer, state the number alone without any accompanying words.

Prompt: Reported pKd, binder SSIDLWETAL [SLC15A5, A6NIM6] : ____
Response: 5.38

Prompt: Reported pKd, binder FVETQHQTQV [FAT3, Q8TDW7] : ____
Response: 3.63

Prompt: Reported pKd, binder KQVVPFSSSV [GDA, Q9Y2T3] : ____
Response: 3.49

Prompt: Reported pKd, binder SRSRRRETAL [HPV33-E6, P06427] : ____
Response: 3.51

Prompt: Reported pKd, binder GARVSKETPL [MAPK12, P53778] : ____
Response: 3.56

Prompt: Reported pKd, binder DLDEEEDTHL [PODXL, O00592] : ____
Response: 4.95
